# MEASURED TARGET: human CD33 H310A (human, UniProt P20138 18-364)
# Sequence (P20138 18-364 H310A limits assumed): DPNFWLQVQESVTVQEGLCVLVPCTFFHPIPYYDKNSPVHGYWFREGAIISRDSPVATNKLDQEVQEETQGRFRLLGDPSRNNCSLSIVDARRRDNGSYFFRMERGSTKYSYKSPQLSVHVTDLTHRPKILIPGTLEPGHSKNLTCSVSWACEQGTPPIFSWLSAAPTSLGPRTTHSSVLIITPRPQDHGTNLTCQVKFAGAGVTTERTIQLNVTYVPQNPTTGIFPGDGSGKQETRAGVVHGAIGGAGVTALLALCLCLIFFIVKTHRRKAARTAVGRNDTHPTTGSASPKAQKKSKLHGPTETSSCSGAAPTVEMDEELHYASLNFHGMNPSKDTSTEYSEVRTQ
# ASSAY TEXT: alanine scan, flow cytometry, HEK293-T;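 note: antibody binding to each alanine-substituted CD33 mutant expressed transiently in HEK293-T, read as fluorescence minus background, mean of duplicates, relative to wild-type CD33 set as 100%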
MEASURE NAME: Mean % WT Binding

Refmab #2 (antibody, V domains shown, The alanine scan used IgG or Fab) VH: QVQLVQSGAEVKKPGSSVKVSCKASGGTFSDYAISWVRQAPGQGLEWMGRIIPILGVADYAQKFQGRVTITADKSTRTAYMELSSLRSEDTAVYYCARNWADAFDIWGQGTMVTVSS VL: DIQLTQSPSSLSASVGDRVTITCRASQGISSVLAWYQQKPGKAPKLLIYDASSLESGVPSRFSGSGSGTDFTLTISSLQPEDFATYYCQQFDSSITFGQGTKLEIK | 112 % WT binding
Refmab #1 (antibody, V domains shown, The alanine scan used IgG or Fab; also called hP67.6) VH: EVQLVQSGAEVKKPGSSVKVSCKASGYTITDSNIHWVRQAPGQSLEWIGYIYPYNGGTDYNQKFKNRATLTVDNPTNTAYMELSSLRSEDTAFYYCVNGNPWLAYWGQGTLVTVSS VL: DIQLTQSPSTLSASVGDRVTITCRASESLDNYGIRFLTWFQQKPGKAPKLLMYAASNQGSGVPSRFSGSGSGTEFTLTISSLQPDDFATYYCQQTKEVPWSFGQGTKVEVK | 97.4 % WT binding
Refmab #3 (antibody, V domains shown, The alanine scan used IgG or Fab) VH: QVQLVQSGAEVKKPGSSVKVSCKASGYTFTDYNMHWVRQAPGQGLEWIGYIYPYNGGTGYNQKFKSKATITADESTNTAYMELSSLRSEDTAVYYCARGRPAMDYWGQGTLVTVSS VL: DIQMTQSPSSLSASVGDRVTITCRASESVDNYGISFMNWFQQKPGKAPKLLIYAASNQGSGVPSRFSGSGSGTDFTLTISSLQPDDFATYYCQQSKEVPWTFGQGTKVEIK | 101 % WT binding
Refmab #4 (antibody, V domains shown, The alanine scan used IgG or Fab) VH: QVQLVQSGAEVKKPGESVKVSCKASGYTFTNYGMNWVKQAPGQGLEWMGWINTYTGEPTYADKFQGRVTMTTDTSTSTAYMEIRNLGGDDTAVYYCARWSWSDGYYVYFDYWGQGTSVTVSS VL: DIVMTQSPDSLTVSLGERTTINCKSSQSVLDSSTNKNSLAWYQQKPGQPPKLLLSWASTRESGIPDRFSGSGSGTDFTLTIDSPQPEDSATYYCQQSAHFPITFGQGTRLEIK | 94.3 % WT binding
